assay_notes: NCI Yeast Anticancer Drug Screen. Data for the rad50 strain (AID 155);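 note: 0% = growth of vehicle-only cultures of the same strain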
reported_conditions: S. cerevisiae rad50 strain growth inhibition; at 50.0 µM; stronger effect = higher value
The panel holds about 79,000 compounds, 15% with a hit somewhere; the sample as a whole holds those more often.
Parameter growth inhibition: see the listing below.
Give the number; % is assumed, so skip it.

Use these answered entries as a reference point.
compound	growth inhibition, %
CCCCCCCCCCCCCCCCCC(=O)NCCCN(C)C	92.2
CCOC(=O)c1[nH]cc(C)c1-c1cccn1-c1ccc(Cl)cc1[N+](=O)[O-]	32.5
CCN(CC)CCOc1cc(C)c2cc(Cc3ccccc3)ccc2n1	88.2
CC(C)/C(Cl)=N\OC(=O)Nc1ccc(F)cc1F	6.55
CCOC(=O)C(C(=O)OCC)=P(c1ccccc1)(c1ccccc1)c1ccccc1	12.4

Item COc1ccc(C(=O)Oc2ccccc2Br)cc1 has what recorded growth inhibition?
6.6

Would you mind telling me what growth inhibition value was observed for CCN(CC)Cc1cc(Nc2c3ccccc3nc3c2[nH]c2ccccc23)cc(CN(CC)CC)c1O ?
17.8

Which growth inhibition reading was recorded for the compound COc1ccc(C/C=N/Nc2ccc([N+](=O)[O-])cc2)cc1OC ?
98.1

Reported growth inhibition, compound O=C1C(=O)c2ccccc2C(O)=C1C(C1=C(O)c2ccccc2C(=O)C1=O)c1ccc(Cl)cc1 : ____
92.5

Which growth inhibition value is on record for N#CC(C#N)=NNc1ccc(S(=O)(=O)O)cc1 ?
19.3

For C(=Nc1ccc(-c2cc(-c3ccccc3)nc3ccc4ccccc4c23)cc1)c1ccccc1 , what is its reported growth inhibition?
50.2

Reported growth inhibition, compound C/C=C/SC(=Nc1ccccc1)Nc1ccccc1 : ____
88

Sample Cc1c(C)c(C)c(CSC(=N)N)c(C)c1C — what was its growth inhibition?
91.8

What value of growth inhibition has been reported for the following compound? CN(C)CCNC(=O)c1cccc2c1Oc1c(cccc1[N+](=O)[O-])O2
32.6

* * *

// reported growth inhibition for each item listed
assay_notes: NCI Yeast Anticancer Drug Screen. Data for the rad52 strain (AID 147);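 note: 0% = growth of vehicle-treated control cultures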
reported_conditions: S. cerevisiae rad52 mutant growth inhibition; at 1.2 µM; stronger effect = higher value
Procedure: Growth inhibition of yeast strains with defined genetic alterations is measured as a screen for potential anti-cancer activity. Selected strains with alterations in DNA damage repair or cell cycle control were exposed to compounds and growth inhibition was measured relative to vehicle treated controls. The strain used in this assay is rad52
About 79,000 compounds went through this panel and 15% of them were active in at least one assay; those are over-represented in the sample as a whole.
Lab book: enter the figure in %, no units written.

molecule	growth inhibition / %
CCCC(O)C1CC(C(C)C)CCC1C (stereo not drawn)	0
CCO/C(C)=C(/C#N)C(N)=S	-1
O=C(NO)Nc1cc(Cl)cc(Cl)c1	7
CCCC(=O)Oc1c(C)cc([N+](=O)[O-])cc1[N+](=O)[O-]	4

// returns reported growth inhibition for input CC(C)OC(=O)c1ccc(CCc2cc(O)c(Br)cc2O)cc1
37

Given the entry CCOC(=O)C(C(=O)OCC)=P(c1ccccc1)(c1ccccc1)c1ccccc1 , report its measured growth inhibition.
0

Query (molecule): COc1cccc(/C=N/C(/N=C/c2cccc(OC)c2O)c2cccc(OC)c2O)c1O ; field requested: growth inhibition
1

GET /values?readout=growth inhibition&item= Cc1c(C(C)C)cc(OCCO)cc1C(C)C
-3

Fill blank: measured growth inhibition of the molecule CCOC(=O)COc1c(OC)cc(C2C3=C(COC3=O)Oc3cc4c(cc32)OCO4)cc1OC (stereo not drawn) is ____.
2

What measured growth inhibition goes with COC(=O)Nc1cn2ccc(C(Cl)=C(Cl)Cl)cc2n1 ?
-12

Which growth inhibition is listed for O=C(O)c1ccc(N2C(=O)C=CC2=O)cc1 ?
1

Entry CC1(C)CC(=O)C(/C=N/c2nc(-c3ccccc3)cs2)=C(O)C1 : reported growth inhibition = ?
1

Would you kindly share the measured growth inhibition for O=[N+]([O-])c1cc(F)c(F)cc1Sc1cc(F)c(F)cc1[N+](=O)[O-] ?
6

Item Cc1ccccc1N=C(NO)c1ccccc1 has what recorded growth inhibition?
10

Param item = CC(C)c1ccc(NC(=S)NC(=O)c2ccccc2)cc1 ; retrieve measured growth inhibition.
-32

Requested field: growth inhibition. Item: Cc1cc(NCCCCCCCCNc2cc(C)nc3cc(N)ccc23)c2ccc(N)cc2n1
-41

Give the measured growth inhibition of CC1CC[C@]2(C(=O)O)CCC3(C)C(=CC(=O)C4[C@@]5(C)CCC(=O)C(C)(C)C5CC[C@]43C)[C@@H]2[C@H]1C (stereo partly drawn) .
29

Item under review: CCCCc1nnc(NS(=O)(=O)c2ccc(C)cc2)s1 . Reported growth inhibition?
-14
